measurementTarget: T1, human AMHRII (anti-Mullerian hormone receptor type 2) (human, UniProt Q16671 18-573)
T1 construct: whole, on cells; also called AMHR2; human AMHR2
T1 sequence (looked up): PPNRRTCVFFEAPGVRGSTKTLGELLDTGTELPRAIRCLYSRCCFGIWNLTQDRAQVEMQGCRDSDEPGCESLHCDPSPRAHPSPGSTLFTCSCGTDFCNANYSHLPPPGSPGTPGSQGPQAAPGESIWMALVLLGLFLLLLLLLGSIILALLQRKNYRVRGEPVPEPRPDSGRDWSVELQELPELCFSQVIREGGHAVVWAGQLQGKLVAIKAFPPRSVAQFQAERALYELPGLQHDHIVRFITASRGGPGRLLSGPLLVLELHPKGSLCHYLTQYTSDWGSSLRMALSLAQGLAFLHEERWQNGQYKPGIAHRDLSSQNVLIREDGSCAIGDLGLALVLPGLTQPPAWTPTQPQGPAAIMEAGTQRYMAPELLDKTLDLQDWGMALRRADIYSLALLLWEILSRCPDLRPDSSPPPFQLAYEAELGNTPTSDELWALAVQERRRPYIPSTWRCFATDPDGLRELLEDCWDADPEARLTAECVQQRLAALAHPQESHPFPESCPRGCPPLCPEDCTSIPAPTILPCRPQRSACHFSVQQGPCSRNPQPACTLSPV
measurementDescription: FACS on CHO-K1 cells over-expressing human AMHR2
# label = true if Top (MFI) < 50000 MFI else false

{"columns": ["binder", "classLabel"],
 "data": [
  ["108F3D1E9 H2L2 hIgG1 (antibody, V domains shown, Humanized, human IgG1; also called 108F3D1E9 H2L2 hlgG1) VH: QLQLQESGPGLVKPSETLSLTCTVSGYSITSDFAWNWIRQPPGKGLEWMGYISFSGSTSYNPSLKSRVTISRDTSKNQFSLKLSSVTAADTAVYYCAGSRYSWFAYWGQGTLVTVSS VL: DIQLTQSPSSLSASVGDRVTITCRASESVDTYGNSFMHWYQQKPGKPPKLLIYRASNLESGIPSRFSGSGSGTDFTLTISSLQPEDFATYYCQQSNEDPYTFGGGTKVEIK", "false"]
]}

Strictly below 50000 MFI in Top (MFI)? 94C4C3 H1L4 hIgG1 (antibody, V domains shown, Humanized, human IgG1; also called 94C4C3 H1L4 hlgG1) VH: QLQLQESGPGLVKPSETLSLTCTVSGYSITSDYAWNWIRQPPGKGLEWIGYISYSGSISYNPSLKSRVTISVDTSKNQFSLKLSSVTAADTAVYYCARSRYSWFDYWGQGTLVTVSS VL: DIVLTQSPGTLSVSPGERATLSCSASESVDTYGNSFMHWYQQKPGQPPKLLIYRASSLESGIPVRFSGSGSRTDFTLTISRVEAEDFAVYYCQQSNEDPYTFGGGTKLEIK
true
